Tested on: Plasmodium falciparum
Test: Antiplasmodial activity against Plasmodium falciparum
Format: functional, organism-based
Items are presented alongside their recorded IC50.
In your response, the unit should come after the numeric value.

-- ask Identify the reported IC50 for the following entry. C/C(=C/C(O)C[C@@H](C)[C@H]1CC[C@@]2(C)C3=CC[C@H]4C(C)(C)C(O)CC[C@]4(C)C3=CC[C@]12C)C(=O)O (stereo partly specified)
-- reply 11 µM

-- ask Report measured IC50; entry is C/C(C=O)=C/CC[C@@H](C)[C@H]1C[C@H](O)[C@@]2(C)C3=CC[C@H]4C(C)(C)C(=O)CC[C@]4(C)C3=CC[C@]12C [GANODERIC ALDEHYDE TR]
-- reply 6 µM

-- ask Give me measured IC50, please, for this molecule: C/C(=C\CC[C@@H](C)[C@H]1C[C@@H](O)[C@@]2(C)C3=CC[C@H]4C(C)(C)C(=O)CC[C@]4(C)C3=CC[C@]12C)C(=O)O [GANODERIC ACID TR 1]
-- reply 18 µM

-- ask Read the entry C[C@H](CC[C@@H](O)C(C)(C)O)[C@H]1CC[C@@]2(C)C3=CC[C@H]4C(C)(C)C(=O)CC[C@]4(C)C3=CC[C@]12C [GANODERMANONDIOL] and write its reported IC50.
-- reply 13 µM

-- ask Look up and state reported IC50 for C/C(=C/CC[C@@H](C)[C@H]1C[C@H](O)[C@@]2(C)C3=CC[C@H]4C(C)(C)C(=O)CC[C@]4(C)C3=CC[C@]12C)C(=O)O [GANODERIC ACID TR]
-- reply 20 µM

-- ask Read the entry C/C(=C/CC[C@@H](C)[C@H]1CC[C@@]2(C)C3=CC[C@H]4C(C)(C)C(=O)CC[C@]4(C)C3=CC[C@]12C)C(=O)O [GANODERIC ACID S] and write its reported IC50.
-- reply 11 µM
